# assayed_target: UniProtKB P0A9B2
# assay_details: GAPDH kinetic assay, spectrophotometric reduction of NAD+ at 340 nm
# Format: biochemical, E. coli
# measurement_context: IC50 for GAPDH, Examples 36/37, FIG. 16/17
metric_name: IC50

### Prompt Which IC50 value belongs to `O=C1NC(=O)C(=Cc2ccc(-c3cccc(C(=O)O)c3)o2)S1` ?
### Response > 400 µM

* * *

# assayed_target: dihydrofolate reductase (DHFR) (UniProt P00374)
# Sequence (P00374 whole entry): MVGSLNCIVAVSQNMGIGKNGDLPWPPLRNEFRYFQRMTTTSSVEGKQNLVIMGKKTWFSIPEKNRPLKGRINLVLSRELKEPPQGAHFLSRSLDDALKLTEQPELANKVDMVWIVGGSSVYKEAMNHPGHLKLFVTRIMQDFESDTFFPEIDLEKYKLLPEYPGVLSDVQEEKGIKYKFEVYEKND
# assay_details: DHFR kinetic assay, spectrophotometric oxidation of NADH at 340 nm
# Format: biochemical
# measurement_context: Examples 36/37, FIG. 16/17; read-out: IC50 for DHFR
metric_name: IC50

### Prompt Fill blank: measured IC50 of the compound `O=C1NC(=O)C(=Cc2ccc(-c3ccc(C(=O)O)cc3)o2)S1` is ____.
### Response > 75 µM

* * *

# assayed_target: lactate dehydrogenase (LDH) (Oryctolagus cuniculus, UniProt P13491)
# Construct: LDH from Rabbit Muscle; from tissue; host or cells: rabbit muscle
# assay_details: LDH kinetic assay, spectrophotometric oxidation of NADH at 340 nm
# Assay type: biochemical, Rabbit
# measurement_context: Examples 36/37, FIG. 16/17
metric_name: pIC50
One number for each entry, as −log10 of the molar value.

### Prompt Please report the recorded pIC50 for `O=C1NC(=O)C(=Cc2ccc(-c3ccc(O)c(C(=O)O)c3)o2)S1` .
### Response 4.34

* * *

# assayed_target: inosine-5′-monophosphate dehydrogenase (IMPDH)
# assay_details: IMPDH kinetic assay, spectrophotometric reduction of NAD+ at 340 nm
# Format: biochemical
# measurement_context: Examples 36/37, FIG. 16/17; listed as Sa
metric_name: IC50

### Prompt Give IC50 (inosine-5′-monophosphate dehydrogenase (IMPDH)) of the following molecule: O=C1NC(=O)C(=Cc2ccc(-c3ccc(C(=O)O)cc3)o2)S1 [Compound 5a]
### Response > 200 µM

* * *

# assayed_target: inosine-5′-monophosphate dehydrogenase (IMPDH)
# assay_details: IMPDH kinetic assay, spectrophotometric reduction of NAD+ at 340 nm
# Format: biochemical
# measurement_context: Examples 36/37, FIG. 16/17
metric_name: IC50

### Prompt Any idea what IC50 was measured for O=C1NC(=O)C(=Cc2ccc(-c3ccc(O)c(C(=O)O)c3)o2)S1 [Compound 5e] ?
### Response 2150 nM

* * *

Assign IC50 to each entry below.
# assayed_target: glyceraldehyde-3-phosphate dehydrogenase (GAPDH) (Escherichia coli, UniProt P0A9B2)
# Sequence (P0A9B2 whole entry): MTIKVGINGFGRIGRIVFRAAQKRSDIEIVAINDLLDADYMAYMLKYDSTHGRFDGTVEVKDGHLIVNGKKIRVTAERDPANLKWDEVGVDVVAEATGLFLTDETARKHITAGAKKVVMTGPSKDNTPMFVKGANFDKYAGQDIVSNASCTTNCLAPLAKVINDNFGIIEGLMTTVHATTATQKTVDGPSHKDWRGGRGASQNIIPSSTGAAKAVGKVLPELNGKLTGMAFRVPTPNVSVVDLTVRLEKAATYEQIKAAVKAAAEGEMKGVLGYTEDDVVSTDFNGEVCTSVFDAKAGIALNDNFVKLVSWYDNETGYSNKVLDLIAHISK
# assay_details: GAPDH kinetic assay, spectrophotometric reduction of NAD+ at 340 nm
# Assay type: biochemical, E. coli
# measurement_context: Examples 36/37, FIG. 16/17; read-out: IC50 for GAPDH

INSERT INTO results (smiles_notation, value_measured) VALUES
  ('O=C1NC(=O)C(=Cc2ccc(-c3ccc(O)c(C(=O)O)c3)o2)S1', '> 200 µM');

### Prompt Query for glyceraldehyde-3-phosphate dehydrogenase (GAPDH) (Escherichia coli, UniProt P0A9B2): what IC50 does the record show for `O=C1NC(=O)C(=Cc2ccc(-c3ccc(C(=O)O)cc3)o2)S1` ?
### Response > 200 µM

* * *

# assayed_target: inosine-5′-monophosphate dehydrogenase (IMPDH)
# assay_details: IMPDH kinetic assay, spectrophotometric reduction of NAD+ at 340 nm
# Assay type: biochemical
# measurement_context: Examples 36/37, FIG. 16/17; listed as 4-[5-(2,4-dioxo-thiazolidin-5-ylidenemethyl)-furan-2-yl]-benzoic acid
metric_name: pIC50
Give bare numbers, as −log10 of the molar value.

### Prompt Given the entry `O=C1NC(=O)C(=Cc2ccc(-c3ccc(C(=O)O)cc3)o2)S1` , report its measured pIC50.
### Response 4.23

Reference source for all entries: patent US20050042674A9
